Field: response vs control in vivo at 10000 g/ha. Provide a value for each of the compounds that follow.
System: Tetraploider Roggen Sorte Belta
Test: Field trial of gametocidal activity, tetraploid rye Belta
Format: in vivo
Conditions: 1% aqueous emulsion, 10 kg/ha, control = 100, read-out: Prozentsatz des Ansetzens bei freier Bestäubung
Give just the number in %; leave the unit off.

Prompt line: Read the entry Nc1ccc(O)c(C(=O)O)c1 [Beispiel 51, Äthanolaminsalz der 5-Aminosalizylsäure] and write its reported response vs control in vivo at 10000 g/ha.
Response line: 99.5

Prompt line: Read the entry OCCOc1ccc(F)cc1 [Beispiel 2] and write its reported response vs control in vivo at 10000 g/ha.
Response line: 92.8

Prompt line: Read the entry O=C(O)c1ccccc1F [Beispiel 24, Diätha- nolaminat der o-Fluorbenzoesäure] and write its reported response vs control in vivo at 10000 g/ha.
Response line: 98.9

Prompt line: Read the entry O=[N+]([O-])c1ccc(OCC(O)CO)cc1 (stereo not drawn) [Beispiel 9, 3-(4'-Nitrophenoxy)-propandiol-I,2] and write its reported response vs control in vivo at 10000 g/ha.
Response line: 89.6

Prompt line: Read the entry O=C(O)c1ccccc1C(=O)O [Beispiel 55, Phthalsäuremonoäthanolaminsalz] and write its reported response vs control in vivo at 10000 g/ha.
Response line: 99.3

Prompt line: Read the entry OCCCl [Beispiel 45, 2-Chloräthanol] and write its reported response vs control in vivo at 10000 g/ha.
Response line: 95.3
